So I've got a bunch of sequences here, and I need their PBM E-score values.
Molecular target: Pdr3 (UniProt P33200)
Sequence: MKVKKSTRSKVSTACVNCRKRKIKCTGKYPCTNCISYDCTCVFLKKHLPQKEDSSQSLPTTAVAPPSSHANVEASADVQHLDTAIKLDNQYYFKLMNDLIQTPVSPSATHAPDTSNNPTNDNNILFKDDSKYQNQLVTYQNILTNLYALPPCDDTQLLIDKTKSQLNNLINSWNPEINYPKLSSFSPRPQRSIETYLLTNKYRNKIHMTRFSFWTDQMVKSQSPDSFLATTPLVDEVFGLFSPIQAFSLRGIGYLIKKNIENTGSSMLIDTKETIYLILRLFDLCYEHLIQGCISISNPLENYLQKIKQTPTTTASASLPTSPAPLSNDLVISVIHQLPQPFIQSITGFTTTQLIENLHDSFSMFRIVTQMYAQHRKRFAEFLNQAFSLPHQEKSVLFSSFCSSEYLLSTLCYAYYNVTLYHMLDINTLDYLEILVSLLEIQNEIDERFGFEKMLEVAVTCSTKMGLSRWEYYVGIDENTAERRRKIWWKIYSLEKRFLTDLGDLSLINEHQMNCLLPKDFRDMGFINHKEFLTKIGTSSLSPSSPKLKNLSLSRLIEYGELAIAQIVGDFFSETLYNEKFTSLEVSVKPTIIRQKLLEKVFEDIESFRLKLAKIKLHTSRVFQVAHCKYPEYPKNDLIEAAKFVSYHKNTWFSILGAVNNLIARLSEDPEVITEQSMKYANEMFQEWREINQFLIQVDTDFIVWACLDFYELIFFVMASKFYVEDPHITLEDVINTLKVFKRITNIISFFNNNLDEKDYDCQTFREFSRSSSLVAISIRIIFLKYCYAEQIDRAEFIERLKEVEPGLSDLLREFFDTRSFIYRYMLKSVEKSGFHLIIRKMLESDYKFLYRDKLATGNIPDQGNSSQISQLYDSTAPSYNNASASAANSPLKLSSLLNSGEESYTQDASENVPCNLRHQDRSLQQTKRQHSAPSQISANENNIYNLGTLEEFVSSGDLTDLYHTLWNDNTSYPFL
Experiment: PBM E-score (8-mer binding enrichment) (E-score (-0.5 to 0.5)); higher = stronger / more preferred TF binding
Conditions: protein concentration: 200 nM; construct: GST-full length
Over roughly 33,000 sequences, “E-score (-0.5 to 0.5)” has its median near -0.035; the highest 2% begin near 0.35. For the sample, the highest values were picked, then their nearest neighbours and some sequences at random.
Enter a number only.

Q: Suppose we examine the sequence CCTAACTA ; what PBM E-score value has been reported?
Result: -0.0709

Q: Suppose we examine the sequence AAGACAAA ; what PBM E-score value has been reported?
Result: -0.103

Q: Suppose we examine the sequence ACTCCAGT ; what PBM E-score value has been reported?
Result: -0.118

Q: Suppose we examine the sequence AACACAGT ; what PBM E-score value has been reported?
Result: -0.0579

Q: Suppose we examine the sequence ATTCCGAG ; what PBM E-score value has been reported?
Result: 0.449

Q: Suppose we examine the sequence GAGCGTCC ; what PBM E-score value has been reported?
Result: -0.174

Q: Suppose we examine the sequence GGGCGTAC ; what PBM E-score value has been reported?
Result: -0.00965

Q: Suppose we examine the sequence ACGGCACC ; what PBM E-score value has been reported?
Result: -0.0873

Q: Suppose we examine the sequence ACCGTTCC ; what PBM E-score value has been reported?
Result: 0.364

Q: Suppose we examine the sequence CGTGTTCC ; what PBM E-score value has been reported?
Result: 0.383

Q: Suppose we examine the sequence AGGATAAC ; what PBM E-score value has been reported?
Result: -0.212

Q: Suppose we examine the sequence AGATGCGC ; what PBM E-score value has been reported?
Result: 0.0125
